System: 953936-095-R-J2-PDC spheroids with HUVEC/MSC, viability;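 further: spheroids exposed to compounds for seven days before read-out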
Test: Anticancer human tumor 953936-095-R-J2-PDC patient-derived cervical squamous cell carcinoma cell line growth inhibition [PI3K]; active means viability on the fitted dose curve at most 10% of control; inactive means the rest
Conditions: second compound 0.0316 µM; first compound 10 µM
Outcome codes: active, inactive

molecule | experimental system | qualitative label
C=CC(=O)N1CCN(c2nc(=O)n(-c3c(C)ccnc3C(C)C)c3nc(-c4c(O)cccc4F)c(F)cc23)C(C)C1 (stereo not given) + Cc1nc(NC(=O)N2CCCC2C(N)=O)sc1-c1ccnc(C(C)(C)C(F)(F)F)c1 | 953936-095-R-J2-PDC spheroids with HUVEC/MSC, viability | inactive
CNC(=O)c1ccc(N2C(=S)N(c3ccc(C#N)c(C(F)(F)F)c3)C(=O)C2(C)C)cc1F + CC(Nc1ncnc2nc[nH]c12)c1cc2cccc(Cl)c2c(=O)n1-c1ccccc1 | 953936-095-R-J2-PDC spheroids with HUVEC/MSC, viability | inactive
Cn1ncc(Cl)c1-c1cc(C(=O)NC(CN)Cc2cccc(F)c2)sc1Cl (stereo not given) + CC(Nc1ccc2c(c1)OCCn1cc(N3C(=O)OCC3C(F)F)nc1-2)C(N)=O | 953936-095-R-J2-PDC spheroids with HUVEC/MSC, viability | inactive
Cn1nccc1Nc1nccc(-c2ccn(C(CO)c3ccc(Cl)c(F)c3)c(=O)c2)n1 (stereo not given) + CC(Nc1ccc2c(c1)OCCn1cc(N3C(=O)OCC3C(F)F)nc1-2)C(N)=O | 953936-095-R-J2-PDC spheroids with HUVEC/MSC, viability | inactive
CC1(C)CCC(Nc2ncc(C(F)(F)F)c(-c3c[nH]c4c(P(C)(C)=O)c(C#N)ccc34)n2)CN1 (stereo not given) + Cc1nc(NC(=O)N2CCCC2C(N)=O)sc1-c1ccnc(C(C)(C)C(F)(F)F)c1 | 953936-095-R-J2-PDC spheroids with HUVEC/MSC, viability | active

Origin of values: PubChem BioAssay AID1963971
